Target: T1, Axl protein (human, UniProt P30530 26-451)
T1 construct: extracellular domain; also called human Axl; hAxl
T1 sequence (looked up): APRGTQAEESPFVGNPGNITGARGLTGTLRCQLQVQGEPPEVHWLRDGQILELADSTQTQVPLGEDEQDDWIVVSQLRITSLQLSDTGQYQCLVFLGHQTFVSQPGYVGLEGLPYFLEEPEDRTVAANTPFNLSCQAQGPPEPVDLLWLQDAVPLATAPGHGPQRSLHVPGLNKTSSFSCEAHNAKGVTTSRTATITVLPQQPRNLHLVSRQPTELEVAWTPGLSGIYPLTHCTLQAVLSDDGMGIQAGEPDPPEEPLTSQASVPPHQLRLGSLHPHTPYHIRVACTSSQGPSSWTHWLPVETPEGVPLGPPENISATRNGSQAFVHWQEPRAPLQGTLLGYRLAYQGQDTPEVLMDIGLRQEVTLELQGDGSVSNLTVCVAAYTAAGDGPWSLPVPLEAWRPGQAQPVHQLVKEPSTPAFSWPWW
Test: ELISA, 1:9 dilution, pH 6.0 over pH 7.4
experimental-endpoint: Affinity ELISA CPE mutant ratio (1:9, pH 6.0/7.4) (ratio)

INSERT INTO measurements (binder, assay_value) VALUES
  ('HC-Y101N (antibody, V domains shown) VH: EVQLVQSGAEVKKPGATVKISCKVSGYSFTGHTMNWIRQPPGKGLEWIGLIKPSNGGTSYNQKFKGRVTISADKSISTAYLQWSSLKASDTAMYYCAHGHNESYFAMDYWGQGTLVTVSS VL: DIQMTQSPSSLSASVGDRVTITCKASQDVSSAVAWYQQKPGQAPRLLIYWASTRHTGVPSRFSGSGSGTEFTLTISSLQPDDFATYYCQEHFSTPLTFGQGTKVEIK', 2.91),
  ('HC-W110L (antibody, V domains shown) VH: EVQLVQSGAEVKKPGATVKISCKVSGYSFTGHTMNWIRQPPGKGLEWIGLIKPSNGGTSYNQKFKGRVTISADKSISTAYLQWSSLKASDTAMYYCAHGHYESYFAMDYLGQGTLVTVSS VL: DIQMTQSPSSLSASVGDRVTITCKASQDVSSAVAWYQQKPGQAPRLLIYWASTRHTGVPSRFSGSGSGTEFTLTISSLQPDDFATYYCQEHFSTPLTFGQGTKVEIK', 0.924),
  ('HC-F105V (antibody, V domains shown) VH: EVQLVQSGAEVKKPGATVKISCKVSGYSFTGHTMNWIRQPPGKGLEWIGLIKPSNGGTSYNQKFKGRVTISADKSISTAYLQWSSLKASDTAMYYCAHGHYESYVAMDYWGQGTLVTVSS VL: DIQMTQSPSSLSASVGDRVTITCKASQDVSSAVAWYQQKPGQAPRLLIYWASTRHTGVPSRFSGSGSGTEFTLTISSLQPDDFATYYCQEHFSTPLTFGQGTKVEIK', 2.8);
